Reference source: ChEMBL document CHEMBL1157368

- target system: UniProtKB Q965D5
- Sequence (Q965D5 whole entry): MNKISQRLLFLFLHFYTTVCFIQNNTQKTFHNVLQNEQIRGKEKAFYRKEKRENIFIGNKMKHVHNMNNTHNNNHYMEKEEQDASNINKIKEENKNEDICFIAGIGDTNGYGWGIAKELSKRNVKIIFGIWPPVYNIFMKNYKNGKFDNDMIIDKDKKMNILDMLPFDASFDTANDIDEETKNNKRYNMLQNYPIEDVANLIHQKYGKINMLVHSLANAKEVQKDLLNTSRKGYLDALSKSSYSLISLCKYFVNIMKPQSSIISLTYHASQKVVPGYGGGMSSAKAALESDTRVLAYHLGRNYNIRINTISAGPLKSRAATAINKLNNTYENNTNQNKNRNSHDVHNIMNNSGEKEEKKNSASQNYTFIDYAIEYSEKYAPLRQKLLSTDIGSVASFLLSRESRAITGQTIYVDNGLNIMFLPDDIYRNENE
- procedure details: Inhibition of Plasmodium falciparum recombinant FabI
measurement kind: IC50 (nM)
The figure you give is taken to be in nM; do not add the unit.

Any idea what IC50 was measured for Oc1cc(Cl)ccc1Oc1ccc(Cl)cc1Cl ?
70
